Test system: HIPK3;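 also: KINOMEscan kinase panel screen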
MEASUREMENT_SETUP: concentration: 1 μM,replicates: in singlicate; n = 1
Decision: %Inh >= 5% yields true (1), all other cases yield false (0).

> print(dat)
                                   compound  assigned.category
1  O=C(NOCC1CC1)c1cc(Br)c(F)c(F)c1Nc1ccc(I)cc1Cl          false (0)
2  CS(=O)(=O)c1cccc(CNc2nc(Nc3ccc4c(c3)[C@@H]3C[C@@H]4CNC3=O)ncc2C(F)(F)F)c1           true (1)
3  CC(C(=O)NC1CCN(c2ccnc(Nc3ccc(F)cc3)n2)C1)c1ccc(Cl)cc1 (stereo not drawn)          false (0)
4  C[C@@H]1CCN(C(=O)N2CCCC2)C[C@@H]1N(C)c1ncnc2[nH]ccc12           true (1)
5  Cc1ccn2nc(-c3ccc(F)cc3)c(-c3ccncc3)c2c1.Cl          false (0)
6  Cn1ccc2ncnc(Oc3ccc(NC(=O)Nc4cccc(C(F)(F)F)c4)c(F)c3)c21          false (0)
7  O=C(NCC1CC1)c1ccc(-c2cc(C(=O)NC3CC3)ccc2F)cc1          false (0)
8  CN(c1ccccc1CNc1nc(Nc2ccc3c(c2)CC(=O)N3)ncc1C(F)(F)F)S(C)(=O)=O           true (1)
